# target_entity: Cholinesterase (Homo sapiens, UniProt P06276)
# Sequence (P06276 whole entry): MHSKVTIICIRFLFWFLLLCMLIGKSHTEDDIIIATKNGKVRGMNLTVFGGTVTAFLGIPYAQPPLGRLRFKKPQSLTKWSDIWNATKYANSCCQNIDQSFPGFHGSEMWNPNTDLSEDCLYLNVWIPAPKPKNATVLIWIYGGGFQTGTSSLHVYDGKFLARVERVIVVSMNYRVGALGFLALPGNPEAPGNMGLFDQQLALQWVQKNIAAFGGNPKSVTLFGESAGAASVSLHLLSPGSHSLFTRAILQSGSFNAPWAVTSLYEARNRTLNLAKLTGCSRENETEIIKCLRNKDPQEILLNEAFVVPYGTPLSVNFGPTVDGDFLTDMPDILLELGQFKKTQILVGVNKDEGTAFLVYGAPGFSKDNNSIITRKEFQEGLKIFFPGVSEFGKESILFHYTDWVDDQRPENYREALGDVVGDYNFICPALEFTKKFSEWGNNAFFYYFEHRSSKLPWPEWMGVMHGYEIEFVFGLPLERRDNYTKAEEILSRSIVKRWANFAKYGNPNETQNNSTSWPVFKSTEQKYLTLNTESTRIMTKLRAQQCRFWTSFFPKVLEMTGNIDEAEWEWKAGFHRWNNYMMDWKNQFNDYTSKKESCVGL
# method_notes: Inhibition of recombinant human BuChE using butyrylthiocholine iodide as substrate preincubated for 5 mins followed by substrate addition and measured for 5 mins by Ellman's method
pIC50: −log10 of the molar value.
Please note: Met applies when pIC50 is 7 or greater, and Not met applies otherwise.

{"columns": ["compound", "cat"],
 "data": [
  ["COc1cc2c(cc1OC)C(=O)C(Cc1cn(CC3CCN(Cc4ccccc4)CC3)nn1)C2 (stereo unspecified)", "Not met"],
  ["O=C1c2ccccc2C(=O)N1Cc1cn(CC2CCN(Cc3ccccc3)CC2)nn1", "Not met"],
  ["N[C@@H](Cn1cc(-c2ccccc2)nn1)C(=O)NCC1CCN(Cc2ccccc2)CC1", "Met"],
  ["CCOc1ccc2[nH]c(SCc3cn(CC4CCN(Cc5ccccc5)CC4)nn3)nc2c1", "Not met"],
  ["CC(=O)N[C@@H](CCCCn1cc(-c2ccccc2)nn1)C(=O)NCC1CCN(Cc2ccccc2)CC1", "Not met"],
  ["O=C(Cc1c[nH]c2ccccc12)NCc1cn(CC2CCN(Cc3ccccc3)CC2)nn1", "Not met"],
  ["N[C@@H](CCCCn1cc(-c2ccccc2)nn1)C(=O)NCC1CCN(Cc2ccccc2)CC1", "Not met"],
  ["c1ccc(CN2CCC(Cn3cc(CNc4ncnc5ccccc45)nn3)CC2)cc1", "Not met"],
  ["CC(=O)N[C@@H](Cn1cc(-c2ccccc2)nn1)C(=O)NCC1CCN(Cc2ccccc2)CC1", "Met"],
  ["COc1cc2ncnc(NCc3cn(CC4CCN(Cc5ccccc5)CC4)nn3)c2cc1OC", "Not met"]
]}

====

# target_entity: Acetylcholinesterase (Homo sapiens)
# Sequence (P22303 whole entry): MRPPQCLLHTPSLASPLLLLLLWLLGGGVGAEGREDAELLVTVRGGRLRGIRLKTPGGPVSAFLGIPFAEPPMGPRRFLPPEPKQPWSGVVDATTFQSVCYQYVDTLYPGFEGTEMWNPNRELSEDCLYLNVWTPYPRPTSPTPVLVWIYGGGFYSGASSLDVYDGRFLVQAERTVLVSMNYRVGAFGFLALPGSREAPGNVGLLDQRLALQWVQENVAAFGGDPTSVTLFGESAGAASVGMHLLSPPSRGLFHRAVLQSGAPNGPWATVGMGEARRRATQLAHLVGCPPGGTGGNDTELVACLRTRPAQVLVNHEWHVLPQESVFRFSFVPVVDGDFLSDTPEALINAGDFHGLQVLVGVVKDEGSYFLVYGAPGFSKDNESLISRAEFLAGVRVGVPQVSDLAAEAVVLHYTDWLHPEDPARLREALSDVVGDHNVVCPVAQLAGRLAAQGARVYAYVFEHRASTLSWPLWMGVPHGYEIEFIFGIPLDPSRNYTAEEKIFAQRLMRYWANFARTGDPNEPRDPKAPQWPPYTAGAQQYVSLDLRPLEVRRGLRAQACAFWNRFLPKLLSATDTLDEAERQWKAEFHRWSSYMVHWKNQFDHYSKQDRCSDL
# method_notes: Inhibition of recombinant human AChE using acetylthiocholine iodide as substrate preincubated for 5 mins followed by substrate addition and measured for 5 mins by Ellman's method
# IC50 values compiled below

{"columns": ["compound", "limit_operator", "IC50 [µM]"],
 "data": [
  ["O=C1c2ccccc2C(=O)N1Cc1cn(CC2CCN(Cc3ccccc3)CC2)nn1", "=", 4.9],
  ["O=C(Cc1c[nH]c2ccccc12)NCc1cn(CC2CCN(Cc3ccccc3)CC2)nn1", ">", 10],
  ["c1ccc(CN2CCC(Cn3cc(CSc4nc5ccccc5[nH]4)nn3)CC2)cc1", "=", 7.33],
  ["N[C@@H](Cn1cc(-c2ccccc2)nn1)C(=O)NCC1CCN(Cc2ccccc2)CC1", ">", 10],
  ["c1ccc(CN2CCC(Cn3cc(CNc4ncnc5ccccc45)nn3)CC2)cc1", "=", 4.22],
  ["CCOc1ccc2[nH]c(SCc3cn(CC4CCN(Cc5ccccc5)CC4)nn3)nc2c1", "=", 6.9],
  ["CC(=O)N[C@@H](CCCCn1cc(-c2ccccc2)nn1)C(=O)NCC1CCN(Cc2ccccc2)CC1", ">", 10],
  ["COc1cc2c(cc1OC)C(=O)C(Cc1cn(CC3CCN(Cc4ccccc4)CC3)nn1)C2 (stereo unspecified)", "=", 4.92],
  ["N[C@@H](CCCCn1cc(-c2ccccc2)nn1)C(=O)NCC1CCN(Cc2ccccc2)CC1", ">", 10],
  ["COc1cc2ncnc(NCc3cn(CC4CCN(Cc5ccccc5)CC4)nn3)c2cc1OC", "=", 3.94],
  ["CC(=O)N[C@@H](Cn1cc(-c2ccccc2)nn1)C(=O)NCC1CCN(Cc2ccccc2)CC1", ">", 10]
]}
